method: yeast display, Sf9 membrane polyspecificity reagent, FACS + sequencing; frameworks hold sequencing errors
observation_type: polyreactivity (PSR sort gate)

Example results:
Query: polyreactivity (PSR sort gate); subject: QVQLVESGGGLVQAGGTLRLSCAASGSIFRYYAMGWYRQAPGKERELVATITSTGGSTYYADSVKGRFTISRDNAKNTVYLQMNSLKPEDTAVYYCAARNKWYVTVRGYYLSGFWGQGTQVTVSS high polyreactivity

Query: polyreactivity (PSR sort gate); subject: QVQLVESGGGLVQAGGSLRLSCAASGSIFRFKAMGWYRQAPGKERELVAAISWSGGRTYYADSVKGRFTISRDNAKNTVYLQMNSLKPEDTAVYYCAARRSGLKVSPNFGYWGQGTQVTVSS high polyreactivity

Query: polyreactivity (PSR sort gate); subject: QVQLVESGRGLLQAGGSLPLSCAASGRIFAYNTMGWYRQAPGKERELVAAISWRGGSTYYADSVKGRFTISRDNAKKTVYFQMNSLKPEDTAVYYCSVLYSSFTRFDYWGQGSQVTVSS high polyreactivity

Query: polyreactivity (PSR sort gate); subject: QVQLVDSGGGLVQAGGSLRLSCAASGSIFPKNAMGWYRPAPGKERELVAAISSGGGGTYYADSVKGRFTISRDNAKNTVYLQMNSLKPEDTAVFYCNKRDGNGGNTKYDYWGQGTQVTVSS low polyreactivity

Query: polyreactivity (PSR sort gate); subject: QVQLVESGGGLVQAGGSLRLSCAASGNIFRYYAMGWYRQAPGKERELVARISTGSSTYYADSVKGRFTISRDNAKNTVYLQMNSLKPEDTAVYYCAAANYRYRVPWFYYWGQGTQVTVSS high polyreactivity

Further cases:
Query: polyreactivity (PSR sort gate); subject: QVQLEESGGGLVQAGGSLRLSCAASGSTFINNAMGWYRQPPGKERELVAAISSGGSTYYADSVKGRFTISRDNAKNTVYLEMNSLKPEDTAVYYCAAEFVETKYPEMDYWGQGTQVTVSS low polyreactivity

Query: polyreactivity (PSR sort gate); subject: QVQLVESGGGLVQAGGSLRLSCAASGRILYIYAMGWYRQAPGKERELVASISWTDGSTYYADSVKGRFTISRDNAKNTVYLQMNSLKPEDTAVYYCNAAYYYYWELKKYNYWGPGTQVTVSS low polyreactivity

Query: polyreactivity (PSR sort gate); subject: QVQLQDSGGGLVQAVGSQRMSCAASGYIFYFQYMGWYRQAPGKEREFVAAISDGANTNYADSVKGRFTISRDNAKNTEYLQMYCLKPEDTAVYYCAVYADENYYYIYWGQGTQVTVSS low polyreactivity

Query: polyreactivity (PSR sort gate); subject: QVQLVESGGGLVQAGGILRLSCAASGSIFSGYAMGWYRQAPGKERELVAAITWRAASTYYADSVKGRFTISRDNAKNTVYLQMNSLKPEDTAVYYCAKEGWPKPAFYYWGQGTQVTVSS low polyreactivity

Query: polyreactivity (PSR sort gate); subject: QVQLVESGGGLVQAGGSLRLSCAASGSTFYYYAMGWYRQAPGKERELVAAISISDNSTYYADSVKGRFTISRDNAKNTVYLQMNSLKPEDTAVYYCAAYGWYAHDDSTYDYWGQGTQVTVSS low polyreactivity

Query: polyreactivity (PSR sort gate); subject: QVQLVESGGGLVQAGGSLRLSCAASGGTIDNAMGWYRQAPGKERELVAAISKHGGRTYYADSVKGRFTISRDNAKNTVYLQMNSLKAEDTAVYYCAADAFRGFFWGQGTQVTVSS high polyreactivity

Query: polyreactivity (PSR sort gate); subject: QVQLVESGGGLVQAGGSLRLSCAASGIIFGGYDMGWYRQAPGKERELVAAISWSGGSTYYADSVKGRFTISRDNAKNTVYLQMNSLKPEDTAVYYCAAAYYAPTRDYHYWGQGTQVTVSS low polyreactivity

Query: polyreactivity (PSR sort gate); subject: QVQLVESGGGLVQAGGSLRLSCAASGRTFGFYAMGWYRQAPGKERELVATISSSGGSTYYADSVKGRYTISRDNAKNTVYIQMNSLKPEDTAVYYCAKVVSGWRSHYIGDYWGQGTQVTVSS low polyreactivity
